Target: Aurora kinase A (Homo sapiens, UniProt O14965)
Sequence (O14965 whole entry): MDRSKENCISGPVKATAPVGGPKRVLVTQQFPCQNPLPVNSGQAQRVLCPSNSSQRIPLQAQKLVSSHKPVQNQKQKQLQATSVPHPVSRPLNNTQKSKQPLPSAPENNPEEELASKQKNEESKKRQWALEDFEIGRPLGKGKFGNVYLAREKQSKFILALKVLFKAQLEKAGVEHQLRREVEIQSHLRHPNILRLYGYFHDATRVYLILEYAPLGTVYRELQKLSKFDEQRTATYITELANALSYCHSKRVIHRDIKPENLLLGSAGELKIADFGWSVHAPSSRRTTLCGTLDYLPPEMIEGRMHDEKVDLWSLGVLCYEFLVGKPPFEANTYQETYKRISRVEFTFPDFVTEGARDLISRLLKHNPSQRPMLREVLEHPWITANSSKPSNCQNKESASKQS
pKd: −log10 of the molar value.
Measured pKd, listed per entry.

| molecular_string | target_under_test | pKd |
| --- | --- | --- |
| Cc1cc(Nc2nc(Sc3ccc(NC(=O)CN4C[C@H](Oc5cccc(F)c5)[C@@H](O)C4)cc3)nn3cccc23)n[nH]1 | Aurora kinase A (Homo sapiens, UniProt O14965) | 7.77 |
| Cc1cc(Nc2nc(Sc3ccc(NC(=O)CN4C[C@H](OC(C)(C)C)[C@@H](O)C4)cc3)nn3cccc23)n[nH]1 | Aurora kinase A (Homo sapiens, UniProt O14965) | 7.92 |
| Cc1cc(Nc2nc(Sc3ccc(NC(=O)CN4C[C@H](Oc5ccc(F)cc5)[C@@H](O)C4)cc3)nn3cccc23)n[nH]1 | Aurora kinase A (Homo sapiens, UniProt O14965) | 7.82 |
| Cc1cc(Nc2nc(Sc3ccc(NC(=O)CN4C[C@@H](O)[C@@H](Oc5ccc(F)cc5)C4)cc3)nn3cccc23)n[nH]1 | Aurora kinase A (Homo sapiens, UniProt O14965) | 8.15 |
| Cc1cc(Nc2nc(Sc3ccc(NC(=O)CNC4CC4)cc3)nn3cccc23)n[nH]1 | Aurora kinase A (Homo sapiens, UniProt O14965) | 7.49 |
| Cc1cc(Nc2nc(Sc3ccc(NC(=O)CN4C[C@H](OCC5CC5)[C@@H](O)C4)cc3)nn3cccc23)n[nH]1 | Aurora kinase A (Homo sapiens, UniProt O14965) | 8.15 |
| Cc1cc(Nc2nc(Sc3ccc(NC(=O)CN4C[C@H](N)C[C@H]4CO)cc3)nn3cccc23)n[nH]1 | Aurora kinase A (Homo sapiens, UniProt O14965) | 6.42 |
| Cc1cc(Nc2nc(Sc3ccc(NC(=O)CN4CC(F)(F)C[C@H]4CO)cc3)nn3cccc23)n[nH]1 | Aurora kinase A (Homo sapiens, UniProt O14965) | 8.10 |

----------
Molecular target: UniProtKB Q96GD4
Test: Inhibition of Aurora B kinase assessed as reduction in histone H3 phosphorylation in human HCT116 cells
pIC50: −log10 of the molar value.
Measured pIC50, listed per entry.

| molecular_string | pIC50 |
| --- | --- |
| Cc1cc(Nc2nc(Sc3ccc(NC(=O)C4CC4)cc3)nn3cc(NC(=O)N4CCN(C)CC4)cc23)n[nH]1 | 6.72 |
| CCC(C)(C)O[C@H]1CN(CC(=O)Nc2ccc(Sc3nc(Nc4cc(C)[nH]n4)c4cccn4n3)cc2)C[C@@H]1O | 7.55 |
| Cc1cc(Nc2nc(Sc3ccc(NC(=O)CN4C[C@H](Oc5cccc(F)c5)[C@@H](O)C4)cc3)nn3cccc23)n[nH]1 | 7.29 |
| Cc1cc(Nc2nc(Sc3ccc(NC(=O)CN4C[C@H](Oc5ccc(F)cc5F)[C@@H](O)C4)cc3)nn3cccc23)n[nH]1 | 7.24 |
| Cc1cc(Nc2nc(Sc3ccc(NC(=O)CN4C[C@@H](O)[C@@H](Oc5ccc(F)cc5)C4)cc3)nn3cccc23)n[nH]1 | 7.08 |
| Cc1cc(Nc2nc(Sc3ccc(NC(=O)CN4C[C@H](OCC5CC5)[C@@H](O)C4)cc3)nn3cccc23)n[nH]1 | 7.64 |
| Cc1cc(Nc2nc(Sc3ccc(NC(=O)CN4C[C@@H](F)C[C@H]4CO)cc3)nn3cccc23)n[nH]1 | 7.55 |

----------
Target: Aurora kinase B (Homo sapiens)
Sequence (Q96GD4 whole entry): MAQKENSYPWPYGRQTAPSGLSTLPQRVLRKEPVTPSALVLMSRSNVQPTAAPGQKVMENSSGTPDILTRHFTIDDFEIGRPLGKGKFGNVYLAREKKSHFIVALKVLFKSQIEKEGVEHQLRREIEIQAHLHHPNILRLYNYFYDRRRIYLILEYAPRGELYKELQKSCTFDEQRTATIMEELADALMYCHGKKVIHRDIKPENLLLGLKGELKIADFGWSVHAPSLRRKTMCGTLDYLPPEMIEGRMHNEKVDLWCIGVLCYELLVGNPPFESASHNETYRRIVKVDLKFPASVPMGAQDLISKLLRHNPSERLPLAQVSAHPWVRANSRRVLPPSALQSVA

| molecular_string | unit_abbrev | Kd |
| --- | --- | --- |
| Cc1cc(Nc2nc(Sc3ccc(NC(=O)C4CC4)cc3)nn3cc(NC(=O)CCN4CCCCC4)cc23)n[nH]1 | nM | 37 |
| Cc1cc(Nc2nc(Sc3ccc(NC(=O)CN4C[C@H](O)C[C@H]4CO)cc3)nn3cccc23)n[nH]1 | nM | 15 |
| Cc1cc(Nc2nc(Sc3ccc(NC(=O)CN4C[C@H](OC(C)(C)C(F)(F)F)[C@@H](O)C4)cc3)nn3cccc23)n[nH]1 | nM | 4 |
| Cc1cc(Nc2nc(Sc3ccc(NC(=O)CN4C[C@H](SC(C)(C)C)C[C@H]4CO)cc3)nn3cccc23)n[nH]1 | nM | 39 |
| Cc1cc(Nc2nc(Sc3ccc(NC(=O)CN4C[C@H](OCC5CC5)[C@@H](O)C4)cc3)nn3cccc23)n[nH]1 | nM | 2 |
| Cc1cc(Nc2nc(Sc3ccc(NC(=O)CN4C[C@H](F)C[C@H]4CO)cc3)nn3cccc23)n[nH]1 | nM | 9 |
| Cc1cc(Nc2nc(Sc3ccc(NC(=O)CNC4CC4)cc3)nn3cccc23)n[nH]1 | nM | 41 |
| Cc1cc(Nc2nc(Sc3ccc(NC(=O)CN4C[C@H](Oc5ccc(F)cc5)C[C@H]4CO)cc3)nn3cccc23)n[nH]1 | nM | 21 |
| Cc1cc(Nc2nc(Sc3ccc(NC(=O)C4CC4)cc3)nn3cc(NC(=O)CN4CCCC4)cc23)n[nH]1 | nM | 49 |
| Cc1cc(Nc2nc(Sc3ccc(NC(=O)C4CC4)cc3)nn3cc(NC(=O)N4CCN(C)CC4)cc23)n[nH]1 | nM | 4 |
| Cc1cc(Nc2nc(Sc3ccc(NC(=O)CN4C[C@H](OC(C)(C)C)C[C@@H]4CO)cc3)nn3cccc23)n[nH]1 | nM | 69 |
| Cc1cc(Nc2nc(Sc3ccc(NC(=O)C4CC4)cc3)nn3cc(NC(=O)CN4CCOCC4)cc23)n[nH]1 | nM | 9 |
| Cc1cc(Nc2nc(Sc3ccc(NC(=O)CN4CCOCC4)cc3)nn3cccc23)n[nH]1 | nM | 41 |
| Cc1cc(Nc2nc(Sc3ccc(NC(=O)CN4C[C@H](OC(C)(C)C)[C@@H](O)C4)cc3)nn3cccc23)n[nH]1 | nM | 5 |
| Cc1cc(Nc2nc(Sc3ccc(NC(=O)CN4C[C@H](Oc5ccc(F)cc5F)[C@@H](O)C4)cc3)nn3cccc23)n[nH]1 | nM | 17 |
| CCC(C)(C)O[C@H]1CN(CC(=O)Nc2ccc(Sc3nc(Nc4cc(C)[nH]n4)c4cccn4n3)cc2)C[C@@H]1O | nM | 4 |
| Cc1cc(Nc2nc(Sc3ccc(NC(=O)CN4C[C@H](Oc5cccc(F)c5)[C@@H](O)C4)cc3)nn3cccc23)n[nH]1 | nM | 10 |

----------
Test system: HCT-116
Test: Antiproliferative activity against human HCT116 cells
Type: functional, cell-based

| molecular_string | target_under_test | IC50 / µM |
| --- | --- | --- |
| Cc1cc(Nc2nc(Sc3ccc(NC(=O)CN4C[C@H](Oc5cccc(F)c5)[C@@H](O)C4)cc3)nn3cccc23)n[nH]1 | HCT-116 | 0.007 |
| Cc1cc(Nc2nc(Sc3ccc(NC(=O)CN4C[C@H](Oc5ccc(F)cc5)C[C@H]4CO)cc3)nn3cccc23)n[nH]1 | HCT-116 | 0.024 |
| Cc1cc(Nc2nc(Sc3ccc(NC(=O)CN4C[C@H](OC(C)(C)C)C[C@H]4CO)cc3)nn3cccc23)n[nH]1 | HCT-116 | 0.008 |
| Cc1cc(Nc2nc(Sc3ccc(NC(=O)CN4C[C@H](F)C[C@H]4CO)cc3)nn3cccc23)n[nH]1 | HCT-116 | 0.104 |
| Cc1cc(Nc2nc(Sc3ccc(NC(=O)CN4CCC[C@H]4CO)cc3)nn3cccc23)n[nH]1 | HCT-116 | 0.148 |
| Cc1cc(Nc2nc(Sc3ccc(NC(=O)CN4C[C@H](OC(C)(C)C)C[C@@H]4CO)cc3)nn3cccc23)n[nH]1 | HCT-116 | 2.39 |
| Cc1cc(Nc2nc(Sc3ccc(NC(=O)CN4C[C@H](OC(C)C)[C@@H](O)C4)cc3)nn3cccc23)n[nH]1 | HCT-116 | 0.01 |
| Cc1cc(Nc2nc(Sc3ccc(NC(=O)C4CC4)cc3)nn3cc(NC(=O)CN4CCOCC4)cc23)n[nH]1 | HCT-116 | 0.16 |
